B1: FLOT1 (parent)
chain: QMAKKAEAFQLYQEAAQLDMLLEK

- Variants of: B1
- procedure details: protein stability index of a GFP-peptide fusion (GPS, HEK-293T) (PSI 1-6); higher = more stable;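 further: lentivirally expressed fusions sorted by FACS into six bins by GFP to DsRed ratio, PSI derived from sequencing read proportions per bin multiplied by bin number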
- experimental conditions: c terminus: a fixed tail appended
metric name: protein stability index
The response must contain the number and no unit.

Examples with answers:
sequence variant	protein stability index
L22R	2.42
A15C	2.65
Y12H	2.98
L22K	3.07
A6F	1.99
L22W	1.5
A3Y	2.83
A15Y	2.21

Report measured protein stability index; entry is `L22M`
2.02

Return value of protein stability index for input `D19N` , no commentary.
1.91

Could you please provide reported protein stability index for `A8Q` ? Thanks!
1.64

Output measured protein stability index for this item: `E7R`
1.22

Give the reported value of protein stability index for this record: `Q13R`
2.81

Annotate the variant `A16P` with its measured protein stability index.
4.27

Return protein stability index for the following variant: `D19Q`
1.83

Give protein stability index for the following variant: `Q17T`
1.19

Identify protein stability index associated with the variant `Q13M`
3.5

Report measured protein stability index; entry is `A8I`
2.05

Determine from records and report protein stability index for `E23R`
1.39

Identify measured protein stability index associated with `K4I`
2.27

Identify measured protein stability index corresponding to `K5I`
2.49
